Test: Tmax in Sprague-Dawley rat at 30 mg/kg, ig measured over 48 hrs by HPLC/MS analysis
Format: ADME, organism-based
Settings: in vivo, po
readout: Tmax (min)
The answer is to be given in min; state only the numeric part.

Exercise: What does the record list as Tmax for `N#C[C@@]1(c2ccc3c(N)ncnn23)O[C@H](CO)[C@@H](O)[C@H]1O` ?
Solution: 56.4

====

Experiment: Cmax in Sprague-Dawley rat at 30 mg/kg, iv measured over 48 hrs by HPLC/MS analysis
Type: ADME, organism-based
Parameters: dose 30 mg/kg, time 48 hrs, route iv
Conditions: in vivo
readout: Cmax (µg/mL)
The answer is to be given in µg/mL; state only the numeric part.

Exercise: What does the record list as Cmax for `N#C[C@@]1(c2ccc3c(N)ncnn23)O[C@H](CO)[C@@H](O)[C@H]1O` ?
Solution: 164

====

Assay: AUC(0 to t) in Sprague-Dawley rat at 30 mg/kg, iv measured over 48 hrs by HPLC/MS analysis
Assay type: ADME, organism-based
Design: dose 30 mg/kg, time 48 hrs, route iv
Conditions: in vivo
readout: AUC(0-t) at 48 h (µg·h/mL)
The answer is to be given in µg·h/mL; state only the numeric part.

Exercise: What does the record list as AUC(0-t) at 48 h for `N#C[C@@]1(c2ccc3c(N)ncnn23)O[C@H](CO)[C@@H](O)[C@H]1O` ?
Solution: 592
